Overview of reported melting point across a group of compounds:

compound_smiles=NC1=NS(=O)(=O)Nc2cccc(OC3CCCC3)c21 result="> 260 °C"
compound_smiles=CCCNC(=O)C(C)(C)COc1cccc2c1C(N)=NS(=O)(=O)N2 result="225 to 226 °C"
compound_smiles=Cc1sc2[nH]c(=S)nc(N)c2c1C result="> 260 °C"

melting point reported for this compound "Nc1cc(=O)[nH]c2ccccc12" : > 250 °C

melting point reported for this compound "Nc1nc(=O)[nH]c2sc3c(c12)CCOC3" : > 260 °C

###

endpoint: melting point

Below, each entry is followed by its recorded melting point result.
compound=Cc1sc2[nH]c(=O)nc(N)c2c1C.Cl result="> 260 °C"
compound="Cc1cccc2[nH]c(=S)nc(N)c12 [Example 3, 4-Amino-5-methylquinazoline-2(1H)-thione]" result="> 250 °C"
compound="CCCOc1cccc2c1C(N)=NS(=O)(=O)N2 [Example 111]" result="229 to 230 °C"

melting point reported for this compound CC(C)=Cc1cccc2c1C(N)=NS(=O)(=O)N2 [Example 129] : > 260 °C

melting point reported for this compound CC(C)=Cc1c(F)ccc2c1C(N)=NS(=O)(=O)N2 [Example 134] : > 250 °C

melting point reported for this compound NC1=NS(=O)(=O)Nc2cccc(OC3CCCCC3)c21 [Example 168] : 215 to 216 °C
